target: Peroxisome proliferator-activated receptor gamma (Homo sapiens); test: qHTS assay for small molecule agonists of peroxisome proliferator-activated receptor gamma signaling (AID 588536); conditions: HEK293 PPARg-UAS-bla, beta-lactamase ratio, 16 h, percent of rosiglitazone response, DMSO as zero; series mostly up to 76.7 µM
Inconclusive results are not listed. Active and inactive are the calls of the source. Calls follow the shape of the dose curve; as a rule, active = well fitted curve in the direction sought with a large enough effect in the signal ratio, with a control signal flat (not every such curve was filed as active); inconclusive = small, poorly fitted or top-dose-only effect, or effect the other way, or a change in a side signal; inactive = no such curve, though single readings can be large or run the other way; the % refers to the signal ratio.
property-measured: outcome

Cc1cccc(C(=O)O)c1[N+](=O)[O-]; inactive
CCCCC(CC)COC(=O)CCCCC(=O)OCC(CC)CCCC (stereo not given); inactive
Nc1ccccc1[N+](=O)[O-]; inactive
O=C(O)CNC(=O)c1ccc([N+](=O)[O-])cc1; inactive
O=[N+]([O-])c1cc(C(F)(F)F)ccc1Cl; inactive
CNC(=O)c1ccccc1; inactive
Cc1cscn1; inactive
Cc1cc(C(=O)O)ccc1[N+](=O)[O-]; inactive
C=CCCCCCCC=C; inactive
Nc1ccc(F)cc1F; inactive
CCOC(=O)OCC; inactive
COc1ccc(N)c(OC)c1; inactive
O=C1OC(=O)c2c(Cl)c(Cl)c(Cl)c(Cl)c21; inactive
CC1CCC2CC1C2(C)C (stereo not given); inactive
OC/C(Br)=C(\Br)CO; inactive
O=Cc1ccccc1Cl; inactive
[O-]/[N+](=N\O)c1ccccc1; inactive
CCCCC(CC)C(=O)O (stereo not given); inactive
CNc1ccccc1; inactive
C1CCOC1; inactive
Cc1ccc(C)c(O)c1; inactive
O=C(Cl)c1c(Cl)cccc1Cl; inactive
CC(=O)OC(C)=O; inactive
COC(=O)CC#N; inactive
C=C(C)C(=O)OC; inactive
S=C([S-])NCCNC(=S)[S-].[Zn+2]; inactive
CCCCC(C=O)CC (stereo not given); inactive
COc1cccc2sc(N)nc12; inactive
O=C1OC(=O)c2cc([N+](=O)[O-])ccc21; inactive
COC(=O)c1ccccc1; inactive
Cc1ccc(C)c(N)c1; inactive
CCC(C)=O; inactive
CCCCCCCN; inactive
CC(C)(C)OC=O; inactive
NS(=O)(=O)O; inactive
Cc1ccccc1C=O; inactive
Cc1cc(C)cc(N)c1; inactive
OC(CCl)CCl; inactive
O=[N+]([O-])c1cccc(C(F)(F)F)c1; inactive
CC(C)c1ccccc1; inactive

---

assay: Cellular Toxicity (caspase-3) BJ (AID 658); settings: BJ fibroblasts, luminescence, normalized: DMSO 0%, staurosporine 100%; series mostly up to 91.7 µM;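 also: cells exposed to compound for 16 hours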
Active and inactive are the calls of the source. Calls come from the whole dose curve; as a rule, active = well fitted curve in the direction sought with a large enough effect; inconclusive = small, poorly fitted or top-dose-only effect, or another doubt; inactive = no such curve, though single readings can be large or run the other way.
property-measured: outcome

Nc1cccc([N+](=O)[O-])c1; inactive
O=C1NC(=O)c2cc([N+](=O)[O-])ccc21; inactive
O=C(O)/C=C/C(=O)O; inactive
CCCCCNCCCCC; inactive
Cc1cc(C)c(N)cc1C; inactive
NC(=O)CCCCC(N)=O; inactive
Cc1ccccc1Br; inactive
CC(C)(C)c1ccc(OCC2CO2)cc1 (stereo not given); inactive
O=C(O)c1cccc([N+](=O)[O-])c1; inactive
O=C(O)CCSSCCC(=O)O; inactive
O=[N+]([O-])c1ccccc1CCO; inactive
c1ccc(Nc2ccccc2)cc1; inactive
CC(=C/C=C/C(C)=C/C=C/C=C(C)/C=C/C=C(C)/C=C/C(=O)O)/C=C/C(=O)O; inactive
O=C(O)c1cccc(Cl)c1Cl; inactive
c1ccsc1; inactive

---

assay: Cell Viability - LYMP2-008 (AID 980); settings: LYMP2-008 lymphoblastoid cell viability, qHTS; series mostly up to 92.2 µM; also: nearly all actives have a fitted effect of over 60% in size
Records with an inconclusive call do not appear. Active and inactive are the calls of the source. Calls come from the whole dose curve; as a rule, active = well fitted cell-killing curve with a large enough effect; inconclusive = small, poorly fitted or top-dose-only effect; inactive = flat fitted curve, though single readings scatter.
Labels: active, inactive

Cc1ccc2cccnc2c1; inactive
CCCCCCCCN; inactive
NC(=O)/N=N/C(N)=O; inactive
O=C(O)c1cc(Cl)cc(Cl)c1; inactive
NS(=O)(=O)O; inactive
CCOc1ccccc1N; inactive
CCCCCCCN; inactive
c1ccc(Oc2ccccc2)cc1; inactive
NC(=O)NC(N)=O; inactive
N#CCc1ccccc1[N+](=O)[O-]; inactive
CCCOCC(C)OCC(C)O (stereo not drawn); inactive
CC(=O)OC(C)=O; inactive
Nc1nc(-c2ccccc2)cs1; inactive
COc1ccc(N)c(C)c1; inactive
CCCCC/C=C/C=C/C=O; active
CC/C(C)=N/O; inactive
CCC(C)O (stereo not drawn); inactive
CC/C=C1/OC(=O)c2ccccc21; inactive

---

assay: Cell Viability - LYMP1-002 - Assay at 40 hr (AID 994); settings: LYMP1-002 lymphoblastoid cell viability; series mostly up to 92.2 µM; also: nearly all actives have a fitted effect of over 60% in size
Records with an inconclusive call do not appear. Activity calls are given as the source filed them. Calls come from the whole dose curve; as a rule, active = well fitted cell-killing curve with a large enough effect; inconclusive = small, poorly fitted or top-dose-only effect; inactive = flat fitted curve, though single readings scatter.
property-measured: outcome

CC(=O)OCCC(C)C; inactive
C1COC1; inactive
CCNc1cc(O)ccc1C; inactive
CCCCC(CC)C(=O)O (configuration not stated); inactive
O=[N+]([O-])c1cccc(Cl)c1; inactive
C1CCC2OC2C1 (configuration not stated); inactive
O=C(O)CN(CC(=O)O)CC(=O)O; inactive
CCCC(C)CO (configuration not stated); inactive
Nc1nc(-c2ccccc2)cs1; inactive
CCCOCC(C)OCC(C)O (configuration not stated); inactive
O=C(O)c1ccc(Cl)c(Cl)c1; inactive
NC(=S)NNC(N)=S; inactive
O=[N+]([O-])c1ccc(NCCO)c(OCCO)c1; inactive
O=C(O)c1ccccc1Cl; inactive
Cc1cccc([N+](=O)[O-])c1C(=O)O; inactive
NC=O; inactive
c1ccc(Oc2ccccc2)cc1; inactive

---

experiment: Cell Viability - LYMP2-007 (AID 979); conditions: LYMP2-007 lymphoblastoid cell viability; series mostly up to 92.2 µM;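 also: cells exposed to compound for 24 h before reading; nearly all actives have a fitted effect of over 60% in size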
Results filed as inconclusive are left out. Calls of active or inactive are those of the source. Calls follow the shape of the dose curve; as a rule, active = well fitted cell-killing curve with a large enough effect; inconclusive = small, poorly fitted or top-dose-only effect; inactive = flat fitted curve, though single readings scatter.
property-measured: outcome

ON=C1CCCCC1; inactive
O=C(O)CN(CC(=O)O)CC(=O)O; inactive
C/C=C1\CC2C=CC1C2 (centres undefined); inactive
Cc1ccco1; inactive
CC(=O)CC(C)C; inactive
C1CCCC1; inactive
BrC/C=C/CBr; inactive
O=C(O)c1ccc(Cl)c(Cl)c1; inactive
ClC/C=C/CCl; inactive
CCOC(=O)C(C)C(C)=O (centres undefined); inactive
O=C1OC(=O)c2cc([N+](=O)[O-])ccc21; inactive
CCN(C(=O)N(CC)c1ccccc1)c1ccccc1; inactive
CC/C(C)=N/O; inactive
C[C@@H]1CC2(OC[C@]3(C)O[C@H]23)O[C@H]2C[C@@]3(C)[C@@H]4CC[C@H]5C(C)(C)C(O[C@@H]6OC[C@@H](O)[C@H](O)[C@H]6O)CC[C@@]56C[C@@]46CC[C@]3(C)[C@@H]12 (some centres undefined); inactive

---

assay: Cell Viability - SH-SY5Y (AID 544); settings: SH-SY5Y neuroblastoma cell viability;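 also: cells exposed to compound for 40 hours; nearly all actives have a fitted effect of over 55% in size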
Inconclusive results are not listed. Calls of active or inactive are those of the source. The call rests on the fitted dose curve; in most records, active means well fitted cell-killing curve with a large enough effect; inconclusive means small, poorly fitted or top-dose-only effect; inactive means flat fitted curve, though single readings scatter.
property-measured: outcome

CCCCCCCCN; inactive
CCc1ccccc1; inactive
Nc1cccc2c(=O)[nH][nH]c(=O)c12; inactive
Cc1ccc(C(=O)O)cc1; inactive
Fc1ccccc1; inactive
Nc1cc(S(=O)(=O)O)ccc1O; inactive
Nc1cccc(N)c1; inactive
Cc1ccc2nc(-c3ccc(N)cc3)sc2c1S(=O)(=O)O; inactive
Cc1cccc(C(=O)O)c1; inactive
Cc1c(N)cccc1[N+](=O)[O-]; inactive
CCOc1cccc(N)c1; inactive
CCNc1ccccc1; inactive
CC=O; inactive
NC(=O)CCCCC(N)=O; inactive
Cc1ccco1; inactive
CC(C)N(C)C; inactive
COc1ccc(N=[N+]([O-])c2ccc(OC)cc2)cc1; inactive

---

assay: Cell Viability - MRC5 (AID 434); conditions: MRC5 lung fibroblast viability, qHTS;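 also: potency is read from the fitted curve at half-maximal effect; cells exposed to compound for 40 hours at 37 °C; potency reflects cytotoxicity seen as loss of intracellular ATP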
Records with an inconclusive call do not appear. The source made the active and inactive calls. Calls come from the whole dose curve.
property-measured: Potency

CCCC=O; > 92 µM (inactive)
C1CCOC1; > 92 µM (inactive)
CC1=C(/C=C/C(C)=C/C=C/C(C)=C\C=O)C(C)(C)CCC1; 39.8 µM (active)
CCc1ccccc1O; > 92 µM (inactive)
C=C(C)OC(C)=O; > 92 µM (inactive)
CCOC(C)(C)C; > 92 µM (inactive)
S=C([S-])NCCNC(=S)[S-].[Zn+2]; > 92 µM (inactive)
CC(C)=CCC/C(C)=C/C=O; > 92 µM (inactive)
O=C(O[C@@H](C(=O)O)[C@@H](OC(=O)c1ccccc1)C(=O)O)c1ccccc1; > 92 µM (inactive)
Cc1cc(C2(c3cc(C)c(O)cc3C)OS(=O)(=O)c3ccccc32)c(C)cc1O; > 92 µM (inactive)
NC(=O)c1ccccc1[N+](=O)[O-]; > 92 µM (inactive)
O=C(O)CN(CC(=O)O)CC(=O)O; > 92 µM (inactive)
O=[N+]([O-])c1ccc(NCCO)c(OCCO)c1; > 92 µM (inactive)
Clc1cc(Cl)cc(Cl)c1; > 92 µM (inactive)
Cc1ccc(Cl)cc1N; > 92 µM (inactive)

Cited source for all entries: PubChem BioAssay (NCATS)
